Below, each entry is listed with its recorded selectivity ratio.
Assay Comment: Therapeutic index, ratio of HC10 for mouse RBC to IC50 for cytotoxicity against human MCF7 cells
Format: toxicity, cell-based
Setup Conditions: mouse RBC and MCF7 cells, read-out: TI
Non-standard residues stand in square brackets, D forms with d. Residues, ends and D or L forms follow the SMILES beside them. Dip = N[C@H](C(=O)O)C(c1ccccc1)c1ccccc1
Attribute Measured: selectivity ratio

- Compound: "NCCCC[C@H](NC(=O)[C@@H](NC(=O)[C@H](Cc1c[nH]c2ccccc12)NC(=O)[C@H](CCCCN)NC(=O)[C@H](CCCCN)NC(=O)[C@H](Cc1c[nH]c2ccccc12)NC(=O)[C@H](Cc1c[nH]c2ccccc12)NC(=O)[C@H](CCCCN)NC(=O)[C@@H](N)CCCCN)C(c1ccccc1)c1ccccc1)C(N)=O [RUXOTEMITIDE] (H-KKWWKKW[Dip]K-NH2)"
  Quantitative Result: 2.45
- Compound: "CC(C)C[C@H](NC(=O)[C@H](CC(C)C)NC(=O)[C@H](CCCCN)NC(=O)[C@H](CCCCN)NC(=O)[C@H](CC(C)C)NC(=O)[C@H](CC(C)C)NC(=O)[C@H](CCCCN)NC(=O)[C@H](CCCCN)NC(=O)[C@H](CC(C)C)NC(=O)[C@H](CC(C)C)NC(=O)[C@H](CCCCN)NC(=O)[C@H](CCCCN)NC(=O)[C@H](CCC(=O)O)NC(=O)[C@@H](N)CC(C)C)C(N)=O (H-LEKKLLKKLLKKLL-NH2)"
  Quantitative Result: 2.33
- Compound: "CC(C)C[C@H](NC(=O)[C@H](CC(C)C)NC(=O)[C@H](CCCCN)NC(=O)[C@H](CCCCN)NC(=O)[C@H](CC(C)C)NC(=O)[C@H](CC(C)C)NC(=O)[C@H](CCCCN)NC(=O)[C@H](CCCCN)NC(=O)[C@H](CC(C)C)NC(=O)[C@H](CC(C)C)NC(=O)[C@H](CCCCN)NC(=O)[C@H](CCCCN)NC(=O)[C@H](CC(C)C)NC(=O)[C@H](CC(C)C)NC(=O)[C@H](CCCCN)NC(=O)[C@@H](N)CCCCN)C(=O)N[C@@H](CCCCN)C(N)=O (H-KKLLKKLLKKLLKKLLK-NH2)"
  Quantitative Result: 1.34
- Compound: "CC(C)C[C@H](NC(=O)[C@H](CCCCN)NC(=O)[C@H](CCCCN)NC(=O)[C@H](CC(C)C)NC(=O)[C@H](CC(C)C)NC(=O)[C@H](CCCCN)NC(=O)[C@H](CCCCN)NC(=O)[C@H](CC(C)C)NC(=O)[C@H](CC(C)C)NC(=O)[C@H](CCCCN)NC(=O)[C@H](CCCCN)NC(=O)[C@H](CC(C)C)NC(=O)[C@@H](N)CC(C)C)C(=O)N[C@@H](CCC(=O)O)C(N)=O (H-LLKKLLKKLLKKLE-NH2)"
  Quantitative Result: 14.2
- Compound: "CC(C)C[C@H](NC(=O)[C@H](CC(C)C)NC(=O)[C@H](CCCCN)NC(=O)[C@H](CCCCN)NC(=O)[C@H](CC(C)C)NC(=O)[C@H](CC(C)C)NC(=O)[C@H](CCCCN)NC(=O)[C@H](CCCCN)NC(=O)[C@H](CC(C)C)NC(=O)[C@H](CC(C)C)NC(=O)[C@H](CCCCN)NC(=O)[C@H](CCC(=O)O)NC(=O)[C@H](CC(C)C)NC(=O)[C@@H](N)CC(C)C)C(N)=O (H-LLEKLLKKLLKKLL-NH2)"
  Quantitative Result: 0.595
